Reference for the values: patent US20070037841A1

# Test system: RRE
# assay overview: UV absorption spectrum screening of drugs mixed with RRE
# Type: binding, HIV-1
# condition: range of 300 nm to 400 nm; absorption of free compound subtracted or compared
measure: change in UV absorption spectrum on mixing with RRE

compound | reading
Cc1ccc2ccc(NC(=O)CCNCCC(=O)NCc3ccc4ccc(=O)[nH]c4n3)nc2n1 [naphthyridine-azaquinolone hybrid] | significant changes
Cc1ccc2ccc(NC(=O)CCNCCC(=O)Nc3ccc4ccccc4n3)nc2n1 [first quinoline-containing compound] | no remarkable changes
Cc1ccc2ccc(NC(=O)CCNCCC(=O)Nc3ccc4ccc(C)nc4n3)nc2n1 [naphthyridine dimer] | significant changes
O=C(CCNCCC(=O)Nc1ccc2ccccc2n1)NCc1ccc2ccc(=O)[nH]c2n1 [second quinoline-containing compound] | no remarkable changes
